tested on: MDA-MB-435; assay: NCI tumour cell line growth inhibition, 48 h
Activity calls are given as the source filed them. No stated cut-off is given here; in the data, active = GI50 up to about 1.1 µM and inactive = higher.
Form entry, call: pick from active, inactive

MOLECULE: c1ccc2c(c1)-c1nc3ccccc3cc1C2N1CCOCC1 (stereo not drawn)
SYSTEM: MDA-MB-435
GROUP: inactive

MOLECULE: O=[N+]([O-])c1ccc(/N=N\c2c(O)c(S(=O)(=O)O)cc3cc(S(=O)(=O)O)ccc23)cc1
SYSTEM: MDA-MB-435
GROUP: inactive

Request: # fetch the recorded call for CN(C)Cc1cc(C(C)(C)C)ccc1-c1ccc(C(C)(C)C)cc1CN(C)C here
Response: inactive

Request: # fetch the recorded call for O=C1C(CO)=C(CO)C(=O)c2c(O)ccc(O)c21 here
Response: active

Request: # fetch the recorded call for CCOC(=O)c1[nH]c(-c2[nH]c(-c3[nH]c(-c4[nH]c(C(=O)OCC)c(C)c4C(=O)OCC)c(C(=O)OCC)c3C)c(C)c2C(=O)OCC)c(C(=O)OCC)c1C here
Response: inactive
